Origin of the recorded values: patent US20220386606A1

Test system: VIOTR
Assay: Pre-emergence herbicidal action against VIOTR
Format: in vivo, Viola tricolor
Conditions: 320 g/ha
endpoint: Pre-emergence action against VIOTR in % (%)
API: value field is a number in %; no unit string.

Tell me the measured Pre-emergence action against VIOTR in % of CC#Cc1cc(Cl)c(C2=C(O)C3(CCC(COC)C3)NC2=O)c(OC)c1 (centres unmarked) [Example I-73] , please.
100

Follow-up entry: CC#Cc1cc(Cl)c(C2=C(O)C3(CCC(COC)C3)NC2=O)c(OC)c1 (centres unmarked) [Example I-72]
100

Param item: CC#Cc1cc(Br)c(C2=C(OC(=O)OCC)[C@]3(CC[C@H](COCC)C3)NC2=O)c(OC)c1 (stereo in doubt)
100

Proceed to C=CCOCC1CCC2(C1)NC(=O)C(c1c(C)cc(C#CC)cc1OC)=C2O (centres unmarked) [Example I-45]
80

Thanks! And C=CCOCC1CCC2(C1)NC(=O)C(c1c(F)cc(C#CC)cc1OC)=C2OC(=O)OCC (centres unmarked) ?
100

Similarly, CC#Cc1cc(C)c(C2=C(OC(=O)OCC)C3(CCC(COCC)C3)NC2=O)c(F)c1 (centres unmarked) [Example P-53] ?
80

Try this molecule next: CC#Cc1cc(C)c(C2=C(OC(=O)OCC)C3(CCC(COCC)C3)NC2=O)c(F)c1 (centres unmarked) [Example P-54]
100

Next record, please: C=CCOCC1CCC2(C1)NC(=O)C(c1c(C)cc(C#CC)cc1OC)=C2O (centres unmarked) [Example I-47]
100
